Reference source for all entries: ChEMBL document CHEMBL1154164

Measured IC50, listed per entry for reference.
target.system: Macrophage metalloelastase (Homo sapiens, UniProt P39900)
Sequence (P39900 whole entry): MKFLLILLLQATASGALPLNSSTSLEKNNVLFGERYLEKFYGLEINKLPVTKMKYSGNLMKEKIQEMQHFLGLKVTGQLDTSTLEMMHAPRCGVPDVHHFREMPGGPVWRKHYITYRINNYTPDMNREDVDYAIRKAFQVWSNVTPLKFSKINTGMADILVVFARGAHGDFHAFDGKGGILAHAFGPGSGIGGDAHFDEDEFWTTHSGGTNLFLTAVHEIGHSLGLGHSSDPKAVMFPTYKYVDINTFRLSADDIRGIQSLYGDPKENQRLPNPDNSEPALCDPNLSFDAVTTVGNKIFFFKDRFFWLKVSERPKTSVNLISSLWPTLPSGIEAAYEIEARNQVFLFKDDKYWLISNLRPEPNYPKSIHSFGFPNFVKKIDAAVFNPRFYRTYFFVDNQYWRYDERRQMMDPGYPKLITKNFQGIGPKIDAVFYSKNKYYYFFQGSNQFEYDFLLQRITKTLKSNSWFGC
assay.explanation: Inhibition of autoactivated human pro-MMP12 after 4 hrs by fluorimetry

{"compound": "CC(C(=O)O)c1ccccc1S(=O)(=O)c1ccc(-c2ccccc2)cc1 (racemic)", "target.system": "Macrophage metalloelastase (Homo sapiens, UniProt P39900)", "IC50 / nM": 1900}
{"compound": "COc1ccc(-c2ccc(S(=O)(=O)c3ccccc3C(C)C(=O)O)cc2)cc1 (racemic)", "target.system": "Macrophage metalloelastase (Homo sapiens, UniProt P39900)", "IC50 / nM": 310}
{"compound": "O=C(Cc1ccccc1S(=O)(=O)c1ccc(-c2ccccc2)cc1)NO", "target.system": "Macrophage metalloelastase (Homo sapiens, UniProt P39900)", "IC50 / nM": 6}
{"compound": "COc1ccc(Oc2ccc(S(=O)(=O)c3ccccc3CC(=O)NO)cc2)cc1", "target.system": "Macrophage metalloelastase (Homo sapiens, UniProt P39900)", "IC50 / nM": 0.2}
{"compound": "COc1ccc(-c2ccc(S(=O)(=O)c3ccccc3C(=O)NO)cc2)cc1", "target.system": "Macrophage metalloelastase (Homo sapiens, UniProt P39900)", "IC50 / nM": 70}
{"compound": "COc1ccc(S(=O)(=O)c2ccccc2CC(=O)O)cc1", "target.system": "Macrophage metalloelastase (Homo sapiens, UniProt P39900)", "IC50 / nM": 89000}
{"compound": "COc1ccc(Oc2ccc(S(=O)(=O)c3ccccc3C(=O)NO)cc2)cc1", "target.system": "Macrophage metalloelastase (Homo sapiens, UniProt P39900)", "IC50 / nM": 920}

* * *

target.system: Stromelysin-1 (Homo sapiens)
Sequence (P08254 whole entry): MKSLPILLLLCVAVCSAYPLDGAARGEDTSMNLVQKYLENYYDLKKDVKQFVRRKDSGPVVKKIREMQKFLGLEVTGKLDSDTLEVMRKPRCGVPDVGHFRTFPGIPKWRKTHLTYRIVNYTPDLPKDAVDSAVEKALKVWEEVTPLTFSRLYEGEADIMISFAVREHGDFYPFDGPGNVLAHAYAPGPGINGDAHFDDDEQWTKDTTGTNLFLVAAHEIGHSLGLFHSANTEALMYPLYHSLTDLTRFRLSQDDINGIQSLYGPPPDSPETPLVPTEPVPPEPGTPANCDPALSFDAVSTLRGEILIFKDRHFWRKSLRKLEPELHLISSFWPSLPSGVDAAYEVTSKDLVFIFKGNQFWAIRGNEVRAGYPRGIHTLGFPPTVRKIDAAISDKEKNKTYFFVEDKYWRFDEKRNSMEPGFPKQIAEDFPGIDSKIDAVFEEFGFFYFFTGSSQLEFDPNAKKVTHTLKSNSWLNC
assay.explanation: Inhibition of trypsin activated human pro-MMP3 after 4 hrs by fluorimetry
pIC50: −log10 of the molar value.
measurement.type: pIC50

{"compound": "COc1ccc(Oc2ccc(S(=O)(=O)c3ccccc3CC(=O)O)cc2)cc1", "measurement.type": "pIC50", "value.measured": "< 5.00"}
{"compound": "CC(C(=O)O)c1ccccc1S(=O)(=O)c1ccc(-c2ccccc2)cc1 (racemic)", "measurement.type": "pIC50", "value.measured": "< 4.00"}
{"compound": "COc1ccc(S(=O)(=O)c2ccccc2CC(=O)O)cc1", "measurement.type": "pIC50", "value.measured": "< 4.00"}
{"compound": "COc1ccc(S(=O)(=O)c2ccccc2C(=O)NO)cc1", "measurement.type": "pIC50", "value.measured": "< 4.30"}

* * *

target.system: UniProt:P45452
assay.explanation: Inhibition of para-aminophenylmercuric acetate-activated human pro-MMP13 after 4 hrs by fluorimetry

{"compound": "COc1ccc(S(=O)(=O)c2ccccc2CC(=O)O)cc1", "units.symbol": "nM", "IC50": 55000}
{"compound": "CC(C(=O)NO)c1ccccc1S(=O)(=O)c1ccc(-c2ccccc2)cc1 (racemic)", "units.symbol": "nM", "IC50": 74}
{"compound": "COc1ccc(Oc2ccc(S(=O)(=O)c3ccccc3CC(=O)NO)cc2)cc1", "units.symbol": "nM", "IC50": 4.1}
{"compound": "COc1ccc(-c2ccc(S(=O)(=O)c3ccccc3C(C)C(=O)NO)cc2)cc1 (racemic)", "units.symbol": "nM", "IC50": 12}
{"compound": "COc1ccc(-c2ccc(S(=O)(=O)c3ccccc3C(=O)NO)cc2)cc1", "units.symbol": "nM", "IC50": 260}
{"compound": "CC(C(=O)O)c1ccccc1S(=O)(=O)c1ccc(-c2ccccc2)cc1 (racemic)", "units.symbol": "nM", "IC50": 1800}
